The origin of these recorded values is patent US20220348647A1.

# target_system: T1, human CCL17 (human, UniProt Q92583 24-94)
# T1 construct: Biotinylated in the Fab ELISAs; also called huCCL17; Bt-huCCL17
# T1 sequence: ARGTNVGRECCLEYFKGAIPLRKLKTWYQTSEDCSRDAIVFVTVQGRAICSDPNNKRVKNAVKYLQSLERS
# test_method_notes: solution equilibrium affinity (MSD-SEA), IgG1
readout_kind: Kd (pM)

>  <binder>
C17B264 (antibody, IgG1, V domains shown, Expressed as IgG1; Light chain N50I (Kabat) variant of C17B234) VH: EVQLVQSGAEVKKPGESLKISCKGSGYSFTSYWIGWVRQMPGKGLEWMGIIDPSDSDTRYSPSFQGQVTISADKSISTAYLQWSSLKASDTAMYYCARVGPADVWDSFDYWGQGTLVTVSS VL: DIVMTQSPDSLAVSLGERATINCKSSQSVLLSFDNINKLAWYQQKPGQPPKLLIYIASTRESGVPDRFSGSGSGTDFTLTISSLQAEDVAVYYCQQFYSVPSTFGQGTKVEIK

>  <value_reported>
0.4

$$$$
>  <binder>
C17B294 (antibody, IgG1, V domains shown, Expressed as IgG1; Heavy chain S100cT (Kabat) paired with the light chain of C17B258) VH: EVQLVQSGAEVKKPGESLKISCKGSGYSFTSYWIGWVRQMPGKGLEWMGIIDPSDSDTRYSPSFQGQVTISADKSISTAYLQWSSLKASDTAMYYCARVGPADVWDTFDYWGQGTLVTVSS VL: DIVMTQSPDSLAVSLGERATINCKSSQSVLLSFDNINKLAWYQQKPGQPPKLLIYDASTRESGVPDRFSGSGSGTDFTLTISSLQAEDVAVYYCQQFYSVPSTFGQGTKVEIK

>  <value_reported>
1

$$$$
>  <binder>
C17B257 (antibody, IgG1, V domains shown, Expressed as IgG1; Light chain N50A (Kabat) variant of C17B234) VH: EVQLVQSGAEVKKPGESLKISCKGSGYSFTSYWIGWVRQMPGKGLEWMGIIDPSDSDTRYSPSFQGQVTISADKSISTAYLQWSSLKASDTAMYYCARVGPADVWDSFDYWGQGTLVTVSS VL: DIVMTQSPDSLAVSLGERATINCKSSQSVLLSFDNINKLAWYQQKPGQPPKLLIYAASTRESGVPDRFSGSGSGTDFTLTISSLQAEDVAVYYCQQFYSVPSTFGQGTKVEIK

>  <value_reported>
0.1

$$$$
>  <binder>
C17B263 (antibody, IgG1, V domains shown, Expressed as IgG1; Light chain N50T (Kabat) variant of C17B234) VH: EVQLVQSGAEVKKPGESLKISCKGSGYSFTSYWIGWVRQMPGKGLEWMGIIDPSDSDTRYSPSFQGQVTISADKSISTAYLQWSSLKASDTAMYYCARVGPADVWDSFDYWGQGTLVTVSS VL: DIVMTQSPDSLAVSLGERATINCKSSQSVLLSFDNINKLAWYQQKPGQPPKLLIYTASTRESGVPDRFSGSGSGTDFTLTISSLQAEDVAVYYCQQFYSVPSTFGQGTKVEIK

>  <value_reported>
0.1

$$$$
>  <binder>
C17B262 (antibody, IgG1, V domains shown, Expressed as IgG1; Light chain N50S (Kabat) variant of C17B234) VH: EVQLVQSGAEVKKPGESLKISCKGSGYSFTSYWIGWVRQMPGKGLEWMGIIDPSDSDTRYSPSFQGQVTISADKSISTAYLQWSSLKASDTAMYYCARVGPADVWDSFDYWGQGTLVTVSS VL: DIVMTQSPDSLAVSLGERATINCKSSQSVLLSFDNINKLAWYQQKPGQPPKLLIYSASTRESGVPDRFSGSGSGTDFTLTISSLQAEDVAVYYCQQFYSVPSTFGQGTKVEIK

>  <value_reported>
0.3

$$$$
